# Protocol Summary: Stability in TPGS/PG over 22 h
# Format: physicochemical
# Cond: entacapone formed in TPGS/PG, 22 h
# Procedure: The stability of selected compounds of formula I in TPGS/PG over 22 h is tested by the following procedure: […] 37.5 mg of compounds 15, 35 and 57, respectively […] of compound 63, are in each case added to 25 mL of TPGS/PG (25% by weight of TPGS, 75% by weight of PG) (concentration of compounds 15, 35, 57:1.5 mg/mL; concentration of compound 63:1.4 mg/mL). […] The amount of the respective compound of formula I and the amount of entacapone are determined after 5 h, 8 h, 11 h, and 22 h by HPLC assay. […]
Endpoint: Amount of entacapone

- Compound: "CCN(CC)C(=O)/C(C#N)=C/c1cc(OC(=O)OCC2CCCCC2)c(O)c([N+](=O)[O-])c1"
  Endpoint: "Amount of entacapone"
  Recorded Result: "0.08 mg/mL"
- Compound: "CCCC(C)OC(=O)Oc1cc(/C=C(\\C#N)C(=O)N(CC)CC)cc([N+](=O)[O-])c1O (stereo not shown)"
  Endpoint: "Amount of entacapone"
  Recorded Result: "0.03 mg/mL"
- Compound: "CCCCC(CC)COC(=O)Oc1cc(/C=C(\\C#N)C(=O)N(CC)CC)cc([N+](=O)[O-])c1O (stereo not shown)"
  Endpoint: "Amount of entacapone"
  Recorded Result: "0.17 mg/mL"
- Compound: "CCCCCCCCOC(=O)Oc1cc(/C=C(\\C#N)C(=O)N(CC)CC)cc([N+](=O)[O-])c1O"
  Endpoint: "Amount of entacapone"
  Recorded Result: "0.08 mg/mL"

* * *

# Protocol Summary: Solubility in 0.1 N HCl, PBS buffer, FaSSIF and FeSSIF
# Format: physicochemical
# Cond: 0.1 N HCl, pH 1, simulated gastric fluid, thermodynamic from solid, ambient temperature, shaken 10 min; read-out: Solubility 0.1N HCl Ph 1.0
Parameter: solubility at 10 min. Scope: all listed entries.

- Mol Smiles: "CCN(CC)C(=O)/C(C#N)=C/c1cc(OC(=O)OCc2ccccc2)c(O)c([N+](=O)[O-])c1"
  Measure Unit: "µg/mL"
  Censoring Operator: "="
  solubility at 10 min: 150
- Mol Smiles: "CCOC(=O)Oc1cc(/C=C(\\C#N)C(=O)N(CC)CC)cc([N+](=O)[O-])c1O"
  Measure Unit: "µg/mL"
  Censoring Operator: "="
  solubility at 10 min: 70
- Mol Smiles: "CCN(CC)C(=O)/C(C#N)=C/c1cc(O)c(O)c([N+](=O)[O-])c1"
  Measure Unit: "µg/mL"
  Censoring Operator: "="
  solubility at 10 min: 50
- Mol Smiles: "CCCOC(=O)Oc1cc(/C=C(\\C#N)C(=O)N(CC)CC)cc([N+](=O)[O-])c1O"
  Measure Unit: "µg/mL"
  Censoring Operator: "="
  solubility at 10 min: 10
- Mol Smiles: "CCN(CC)C(=O)/C(C#N)=C/c1cc(OC(=O)OCc2ccc3c(c2)OCO3)c(O)c([N+](=O)[O-])c1"
  Measure Unit: "µg/mL"
  Censoring Operator: "="
  solubility at 10 min: 20
- Mol Smiles: "CCN(CC)CCOC(=O)Oc1cc(/C=C(\\C#N)C(=O)N(CC)CC)cc([N+](=O)[O-])c1O"
  Measure Unit: "µg/mL"
  Censoring Operator: ">"
  solubility at 10 min: 1000
- Mol Smiles: "CCN(CC)C(=O)/C(C#N)=C/c1cc(OC(=O)OCC(=O)O)c(O)c([N+](=O)[O-])c1"
  Measure Unit: "µg/mL"
  Censoring Operator: "="
  solubility at 10 min: 30

* * *

# Protocol Summary: Stability of Labrasol formulations in simulated gastric fluid (precipitate formation)
# Format: physicochemical
# Cond: Labrasol solution in SGF, 30 min
Endpoint: Precipitate formation, 30 min

- Compound: "CCCCCCCCOC(=O)Oc1cc(/C=C(\\C#N)C(=O)N(CC)CC)cc([N+](=O)[O-])c1O"
  Endpoint: "Precipitate formation, 30 min"
  Recorded Result: "clear"
- Compound: "CCCC(C)OC(=O)Oc1cc(/C=C(\\C#N)C(=O)N(CC)CC)cc([N+](=O)[O-])c1O (stereo not shown)"
  Endpoint: "Precipitate formation, 30 min"
  Recorded Result: "clear"
- Compound: "CCCCC(CC)COC(=O)Oc1cc(/C=C(\\C#N)C(=O)N(CC)CC)cc([N+](=O)[O-])c1O (stereo not shown)"
  Endpoint: "Precipitate formation, 30 min"
  Recorded Result: "clear"
- Compound: "CCN(CC)C(=O)/C(C#N)=C/c1cc(OC(=O)OCC2CCCCC2)c(O)c([N+](=O)[O-])c1"
  Endpoint: "Precipitate formation, 30 min"
  Recorded Result: "clear"

* * *

# Protocol Summary: Stability in TPGS/PG over 22 h
# Type: physicochemical
# Cond: TPGS/PG, ambient temperature, 5 h; start 1.5 mg/mL (compound 63: 1.4 mg/mL)
# Amount of compound values compiled below

- Molecule: "CCN(CC)C(=O)/C(C#N)=C/c1cc(OC(=O)OCC2CCCCC2)c(O)c([N+](=O)[O-])c1"
  Amount of compound, mg/mL: 1.37
- Molecule: "CCCC(C)OC(=O)Oc1cc(/C=C(\\C#N)C(=O)N(CC)CC)cc([N+](=O)[O-])c1O (stereo not shown)"
  Amount of compound, mg/mL: 1.25
- Molecule: "CCCCCCCCOC(=O)Oc1cc(/C=C(\\C#N)C(=O)N(CC)CC)cc([N+](=O)[O-])c1O"
  Amount of compound, mg/mL: 1.21
- Molecule: "CCCCC(CC)COC(=O)Oc1cc(/C=C(\\C#N)C(=O)N(CC)CC)cc([N+](=O)[O-])c1O (stereo not shown)"
  Amount of compound, mg/mL: 1.23

* * *

This listing pairs molecules with measured chromatographic logD.
# Protocol Summary: Log D (pH 7.4) by isocratic HPLC
# Type: physicochemical
# Cond: YMC Pro C18 column, phosphate buffer pH 7.4/acetonitrile 45/55

- Molecule: "CCN(CC)C(=O)/C(C#N)=C/c1cc(OC(=O)OCc2ccccc2)c(O)c([N+](=O)[O-])c1"
  chromatographic logD: 1.6
- Molecule: "CCN(CC)CCOC(=O)Oc1cc(/C=C(\\C#N)C(=O)N(CC)CC)cc([N+](=O)[O-])c1O"
  chromatographic logD: 1
- Molecule: "CCOC(=O)Oc1cc(/C=C(\\C#N)C(=O)N(CC)CC)cc([N+](=O)[O-])c1O"
  chromatographic logD: 0.8
- Molecule: "CCCCC(CC)COC(=O)Oc1cc(/C=C(\\C#N)C(=O)N(CC)CC)cc([N+](=O)[O-])c1O (centres unmarked)"
  chromatographic logD: 2.9
- Molecule: "CCC(CC)OC(=O)Oc1cc(/C=C(\\C#N)C(=O)N(CC)CC)cc([N+](=O)[O-])c1O"
  chromatographic logD: 1.8
- Molecule: "CCN(CC)C(=O)/C(C#N)=C/c1cc(O)c(O)c([N+](=O)[O-])c1"
  chromatographic logD: 0.5
- Molecule: "CCN(CC)C(=O)/C(C#N)=C/c1cc(OC(=O)OCC(=O)O)c(O)c([N+](=O)[O-])c1"
  chromatographic logD: 1.7
- Molecule: "CCCOC(=O)Oc1cc(/C=C(\\C#N)C(=O)N(CC)CC)cc([N+](=O)[O-])c1O"
  chromatographic logD: 1.2

* * *

# Protocol Summary: Chemical hydrolysis stability at pH 1 and pH 7.4 (HPLC)
# Type: physicochemical
# Cond: pH 7.4; PBS buffer, 37° C., over 12 h; read-out: t1/2 at pH 7.4 (converted)
# Protocol: The stability of compounds of the present invention is tested at pH 1 and at pH 7.4. The testing is carried out by the following HPLC method: Chemical hydrolysis rates t1/2 [h] of selected compounds of formula I are determined in 0.1 N HCl (pH 1) and PBS buffer (pH 7.4) solution. […] Samples were withdrawn at designated time intervals and analysed for remaining prodrug by HPLC at 37° C. over 12 h. […]
In this section, each of the molecules is paired with its reported half-life.

- Molecule: "CCOC(=O)Oc1cc(/C=C(\\C#N)C(=O)N(CC)CC)cc([N+](=O)[O-])c1O"
  Measure Unit: "h"
  Censoring Operator: "="
  half-life: 8.3
- Molecule: "CCN(CC)C(=O)/C(C#N)=C/c1cc(OC(=O)OC(C)c2ccccc2)c(O)c([N+](=O)[O-])c1 (centres unmarked)"
  Measure Unit: "h"
  Censoring Operator: "="
  half-life: 21.4
- Molecule: "CCN(CC)C(=O)/C(C#N)=C/c1cc(OC(=O)OCc2ccc3c(c2)OCO3)c(O)c([N+](=O)[O-])c1"
  Measure Unit: "h"
  Censoring Operator: "="
  half-life: 3.4
- Molecule: "C#CCCOC(=O)Oc1cc(/C=C(\\C#N)C(=O)N(CC)CC)cc([N+](=O)[O-])c1O"
  Measure Unit: "h"
  Censoring Operator: "="
  half-life: 3
- Molecule: "CCN(CC)C(=O)/C(C#N)=C/c1cc(OC(=O)OCc2ccccc2)c(O)c([N+](=O)[O-])c1"
  Measure Unit: "h"
  Censoring Operator: "="
  half-life: 4.1
- Molecule: "CCN(CC)C(=O)/C(C#N)=C/c1cc(OC(=O)OC2CCCCC2)c(O)c([N+](=O)[O-])c1"
  Measure Unit: "h"
  Censoring Operator: "="
  half-life: 19.3
- Molecule: "CCCCCCCCOC(=O)Oc1cc(/C=C(\\C#N)C(=O)N(CC)CC)cc([N+](=O)[O-])c1O"
  Measure Unit: "h"
  Censoring Operator: "="
  half-life: 6.8
- Molecule: "C=CCOC(=O)Oc1cc(/C=C(\\C#N)C(=O)N(CC)CC)cc([N+](=O)[O-])c1O"
  Measure Unit: "h"
  Censoring Operator: "="
  half-life: 4.1
- Molecule: "CCCOC(=O)Oc1cc(/C=C(\\C#N)C(=O)N(CC)CC)cc([N+](=O)[O-])c1O"
  Measure Unit: "h"
  Censoring Operator: "="
  half-life: 7.2
- Molecule: "CCN(CC)CCOC(=O)Oc1cc(/C=C(\\C#N)C(=O)N(CC)CC)cc([N+](=O)[O-])c1O"
  Measure Unit: "h"
  Censoring Operator: "<"
  half-life: 1
- Molecule: "CCN(CC)C(=O)/C(C#N)=C/c1cc(OC(=O)OCC2COC(C)(C)O2)c(O)c([N+](=O)[O-])c1 (centres unmarked)"
  Measure Unit: "h"
  Censoring Operator: "="
  half-life: 2.8
- Molecule: "CCN(CC)C(=O)/C(C#N)=C/c1cc(OC(=O)OCC(C)C)c(O)c([N+](=O)[O-])c1"
  Measure Unit: "h"
  Censoring Operator: "="
  half-life: 11.6
- Molecule: "CCCCC(CC)COC(=O)Oc1cc(/C=C(\\C#N)C(=O)N(CC)CC)cc([N+](=O)[O-])c1O (centres unmarked)"
  Measure Unit: "h"
  Censoring Operator: "="
  half-life: 7.2
- Molecule: "CCN(CC)C(=O)/C(C#N)=C/c1cc(OC(=O)OC(C)C)c(O)c([N+](=O)[O-])c1"
  Measure Unit: "h"
  Censoring Operator: "="
  half-life: 23.1
